All figures here come from patent US7115759B2.

Assay: Peroxide value (PV) by chlorimetric ferric thiocyanate method after storage
Assay type: physicochemical
Conditions: after storage in open glass; spectrophotometric ferric thiocyanate method; unit assumed
Source text: The present invention also contemplates stabilization of CLA containing compounds, including but not limited to, CLA, esters of CLA, and triglycerides of CLA by preventing oxidation of the compounds. The present invention is not limited to any one mechanism. Indeed, an understanding of the mechanism of the invention is not necessary to produce the composition or perform the methods of the present invention. […]
MEASURED PROPERTY: peroxide value (PV) (meq/kg)
The reply should contain only the number, in meq/kg.

Consider the molecule "CCCCC/C=C\C/C=C\CCCCCCCC(=O)O" and give its measured peroxide value (PV).
370
